- Method notes: in vitro
- Test conditions: dog
Parameter measured: CC50

[
  {
    "Compound": "CCC(CC)O[C@@H]1C=C(C(=O)O)C[C@H](n2nncc2-c2cccc(N)c2)[C@H]1NC(C)=O",
    "CC50": "> 500 µM"
  }
]

Recorded result, CCC(CC)O[C@@H]1C=C(C(=O)O)C[C@H](N)[C@H]1NC(C)=O [OSC, oseltamivir carboxylate, reference compound] , CC50: > 500 µM
